tested on: Xanthomonas oryzae pv. oryzae; experiment: microbe, parasite or virus in culture; type: cell-based; details: Xanthomonas oryzae, read-out: Inhibition rate, X. oryzae, 100 μg/mL, average of three replicates
Label FALSE if inhibition at 100 µg/mL falls below 30%; label TRUE in every other case.

Quick check: does "O=S(=O)(Cc1ccccc1)c1nnc(COc2ccc(F)cc2)o1" have inhibition at 100 µg/mL greater than or equal to 30%?
TRUE

Quick check: does "O=S(=O)(Cc1ccccc1)c1nnc(COc2ccc(Br)cc2)s1" have inhibition at 100 µg/mL greater than or equal to 30%?
FALSE

Quick check: does "Cc1cc(Cl)ccc1OCc1nnc(S(C)(=O)=O)s1" have inhibition at 100 µg/mL greater than or equal to 30%?
FALSE

Quick check: does "CS(=O)(=O)c1nnc(COc2ccc(Cl)cc2)o1" have inhibition at 100 µg/mL greater than or equal to 30%?
TRUE

Quick check: does "O=S(=O)(Cc1ccccc1)c1nnc(COc2ccc(Cl)cc2)s1" have inhibition at 100 µg/mL greater than or equal to 30%?
FALSE

Quick check: does "Cc1cc(Cl)ccc1OCc1nnc(S(=O)(=O)Cc2ccccc2)o1" have inhibition at 100 µg/mL greater than or equal to 30%?
FALSE

Quick check: does "O=S(=O)(Cc1ccccc1)c1nnc(COc2ccc(Br)cc2)o1" have inhibition at 100 µg/mL greater than or equal to 30%?
TRUE

Quick check: does "CS(=O)(=O)c1nnc(COc2ccccc2)o1" have inhibition at 100 µg/mL greater than or equal to 30%?
TRUE

Quick check: does "O=S(=O)(Cc1ccccc1)c1nnc(COc2ccc(Cl)cc2Cl)o1" have inhibition at 100 µg/mL greater than or equal to 30%?
TRUE

Quick check: does "O=S(=O)(Cc1ccccc1)c1nnc(COc2ccccc2)o1" have inhibition at 100 µg/mL greater than or equal to 30%?
TRUE

Quick check: does "CS(=O)(=O)c1nnc(COc2ccc(Br)cc2)s1" have inhibition at 100 µg/mL greater than or equal to 30%?
FALSE

Quick check: does "CCS(=O)(=O)c1nnc(COc2ccc(Cl)cc2Cl)o1" have inhibition at 100 µg/mL greater than or equal to 30%?
TRUE

Quick check: does "O=S(=O)(Cc1ccccc1)c1nnc(COc2ccc(Cl)cc2)o1" have inhibition at 100 µg/mL greater than or equal to 30%?
TRUE

Quick check: does "CS(=O)(=O)c1nnc(COc2ccc(Br)cc2)o1" have inhibition at 100 µg/mL greater than or equal to 30%?
TRUE

Quick check: does "CCS(=O)(=O)c1nnc(COc2ccc(F)cc2)o1" have inhibition at 100 µg/mL greater than or equal to 30%?
TRUE

Quick check: does "O=S(=O)(Cc1ccccc1)c1nnc(COc2ccc(Cl)cc2Cl)s1" have inhibition at 100 µg/mL greater than or equal to 30%?
FALSE

Quick check: does S=c1[nH]nc(NCNc2n[nH]c(=S)s2)s1 [Bismerthiazol, reference compound] have inhibition at 100 µg/mL greater than or equal to 30%?
TRUE

Data credit: paper PMC6155626
